# tgt: human ADRA2C receptor (Homo sapiens (Human), UniProt P18825)
# Sequence (P18825 whole entry): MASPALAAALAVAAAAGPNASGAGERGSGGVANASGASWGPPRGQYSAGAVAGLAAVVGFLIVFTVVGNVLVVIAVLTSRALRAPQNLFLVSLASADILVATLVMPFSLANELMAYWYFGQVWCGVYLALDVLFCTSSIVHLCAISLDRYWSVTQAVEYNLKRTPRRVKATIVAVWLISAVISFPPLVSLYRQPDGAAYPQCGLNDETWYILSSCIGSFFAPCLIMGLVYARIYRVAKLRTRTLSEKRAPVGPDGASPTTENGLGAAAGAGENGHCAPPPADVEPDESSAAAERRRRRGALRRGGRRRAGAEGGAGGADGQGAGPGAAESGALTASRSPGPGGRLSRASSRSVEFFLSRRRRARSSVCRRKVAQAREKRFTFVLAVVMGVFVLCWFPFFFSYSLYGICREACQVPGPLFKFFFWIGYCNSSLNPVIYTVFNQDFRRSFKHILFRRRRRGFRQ
# assay.remarks: In vitro activity assay to determine the inhibition of recombinant ADRA2C (CHO-K1 cells, aequorin bioluminescence)
# Assay type: cell-based
# particulars: inhibition of noradrenaline-induced bioluminescence signal; some mean values from multiple determinations; read-out: ARα2C IC50
Parameter: log10 of IC50. Scope: all listed entries.
metric.name: log10 of IC50 (log10 of the value in nM)

| compound | log10 of IC50 |
| --- | --- |
| C[C@@H]1CCCN(C2CCN(c3ncc(C(=O)NCc4ncccc4F)s3)CC2)C1 [Example 20] | 2.04 |
| COc1ccc(F)cc1NC(=O)c1cnc(N2CCC(N3CCC[C@@H](C)C3)CC2)s1 [Example 97] | 3.11 |
| O=C(NCc1ncc(F)cc1F)c1cnc(N2CCC(N3CCCC4(C3)CC4(F)F)C(F)C2)s1 (centres unmarked) [Example 134] | -0.13 |
| C[C@@H]1CCCN(C2CCN(c3ncc(C(=O)NCc4ncc(F)cc4F)s3)CC2)C1 [Example 1] | 2.08 |
| C[C@@H]1CCCN(C2CCN(c3ncc(C(=O)N(C)Cc4ncc(F)cc4F)s3)CC2)C1 [Example 150] | 2.30 |
| O=C(NCc1ncc(F)cc1F)c1cnc(N2CCC(N3CCCC(C4CCC4)C3)CC2)s1 (centres unmarked) [Example 138] | 0.81 |
| Cc1sc(N2CCC(N3CCC[C@@H](C)C3)CC2)nc1C(=O)NCc1ncc(F)cc1F [Example 9] | 2.23 |
| C[C@@H]1CCCN(C2CCN(c3nc(C(=O)NCc4ncc(F)cc4F)cs3)CC2)C1 [Example 10] | 1.33 |
